assay: Partition in octanol/aqueous 5 mM phosphate-citrate-borate buffer pH 7.4, estimated from EPR amplitudes; assay type: physicochemical; conditions: octanol/aqueous 5 mM phosphate-citrate-borate buffer pH 7.4
REPORTED ENDPOINT: partition coefficient (Kp)
Format: numeric value only, no unit, no commentary.

See these solved cases before continuing.
>>> endpoint_value("CCC1(CC)C(CO)=C(CO)C(CC)(CC)N1[O] [compound 22, reference compound]")
37
>>> endpoint_value("CCC1(CC)C(CN=[N+]=[N-])=C(CN(C)C)C(CC)(CC)N1[O] [11b]")
15
>>> endpoint_value("CCC1(CC)C(CN)C(CN=[N+]=[N-])C(CC)(CC)N1[O] (stereo not shown) [13a]")
350

Answer with the recorded partition coefficient (Kp) of CCC1(CC)C(CN=[N+]=[N-])C(CN(C)C)C(CC)(CC)N1[O] (stereo not shown) [11a] only.
52

###

assay: Partition in octanol/aqueous 5 mM phosphate-citrate-borate buffer pH 7.4, estimated from EPR amplitudes; format: physicochemical; settings: octanol/aqueous 5 mM phosphate-citrate-borate buffer pH 7.4
Lab note: compare partition coefficient (Kp) against 40. Equal or greater, write satisfied. Smaller, write not satisfied.

Record excerpt, results attached:
>>> label("CCC1(CC)C(CN)=C(CN=[N+]=[N-])C(CC)(CC)N1[O] [13b]")
"satisfied"
>>> label("CCC1(CC)C(CO)C(CN2C(=O)C=CC2=O)C(CC)(CC)N1[O] (centres unmarked)")
"satisfied"

Please tell me: is the molecule CCC1(CC)C(CN)=C(CN(C)C)C(CC)(CC)N1[O] [14b] at or over 40 in terms of partition coefficient (Kp)?
not satisfied

Please tell me: is the molecule CCC1(CC)CC(C(=O)O)C(CC)(CC)N1[O] (centres unmarked) [compound 21, reference compound] at or over 40 in terms of partition coefficient (Kp)?
satisfied

###

test: Kinetics of nitroxide reduction with ascorbate in the presence of glutathione, followed by EPR; format: physicochemical; details: ascorbate 100–300 mM, glutathione 5 mM, 5 mM phosphate-citrate-borate buffer, pH 7.4, 25 °C; values are kred × 10^4
REPORTED ENDPOINT: kred × 10^4 (rate of reduction with ascorbate) (M^−1 s^−1)
Dear colleague, please return just the value in M^−1 s^−1, with no unit written.

See these solved cases before continuing.
>>> endpoint_value("CCC1(CC)C(CN)C(CN(C)C)C(CC)(CC)N1[O] (stereo not drawn) [14a]")
6.4
>>> endpoint_value("CCC1(CC)C(CN)=C(CN(C)C)C(CC)(CC)N1[O] [14b]")
8
>>> endpoint_value("CCC1(CC)C(CN)C(CN=[N+]=[N-])C(CC)(CC)N1[O] (stereo not drawn) [13a]")
6.3
>>> endpoint_value("CCC1(CC)C(CN)=C(CN=[N+]=[N-])C(CC)(CC)N1[O] [13b]")
7.6

Answer with the recorded kred × 10^4 (rate of reduction with ascorbate) of CCC1(CC)C(CO)C(CNC(=O)OC(C)(C)C)C(CC)(CC)N1[O] (stereo not drawn) [compound 8] only.
6.0

Answer with the recorded kred × 10^4 (rate of reduction with ascorbate) of CCC1(CC)C(CNC(=O)OC(C)(C)C)C(COS(C)(=O)=O)C(CC)(CC)N1[O] (stereo not drawn) [compound 9] only.
3.0
